assay: Cell Viability - LYMP2-024 (AID 988); settings: LYMP2-024 lymphoblastoid cell viability; series mostly up to 92.2 µM;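 note: cells exposed to compound for 24 hr at 37 °C; nearly all actives have a fitted effect of over 60% in size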
Records with an inconclusive call do not appear. The source made the active and inactive calls. Calls come from the whole dose curve; as a rule, active = well fitted cell-killing curve with a large enough effect; inconclusive = small, poorly fitted or top-dose-only effect; inactive = flat fitted curve, though single readings scatter.
Classes used: label 1 = active, label 0 = inactive

>  <compound>
O=NN(c1ccccc1)c1ccccc1

>  <qualitative_label>
label 0

$$$$
>  <compound>
N#CCCCl

>  <qualitative_label>
label 0

$$$$
>  <compound>
COC1=CC(=O)O[C@@H](/C=C/c2ccc3c(c2)OCO3)C1

>  <qualitative_label>
label 0

$$$$
>  <compound>
C[N+](C)(C)Cc1ccccc1

>  <qualitative_label>
label 0

$$$$
>  <compound>
CCc1cccc(CC)c1N(COC)C(=O)CCl

>  <qualitative_label>
label 1

$$$$
>  <compound>
c1nc[nH]n1

>  <qualitative_label>
label 0

$$$$
>  <compound>
c1ccc(N=Nc2ccccc2)cc1

>  <qualitative_label>
label 0

$$$$
>  <compound>
NC(=S)Nc1ccccc1

>  <qualitative_label>
label 0

$$$$
>  <compound>
COC1=CC(=O)OC(CCc2ccccc2)C1 (stereo unspecified)

>  <qualitative_label>
label 0

$$$$
>  <compound>
[O-][Br+2]([O-])O

>  <qualitative_label>
label 0

$$$$
>  <compound>
ClC(Cl)(Cl)c1ccccc1

>  <qualitative_label>
label 0

$$$$
>  <compound>
C=CCOC(C)=O

>  <qualitative_label>
label 0

$$$$
>  <compound>
Clc1ccc2ccccc2c1

>  <qualitative_label>
label 0

$$$$
>  <compound>
C=CC(=C)C

>  <qualitative_label>
label 0

$$$$
>  <compound>
C=CCOC(=O)c1ccccc1N

>  <qualitative_label>
label 0

$$$$
>  <compound>
O=[N+]([O-])c1ccc(Cl)c(Cl)c1

>  <qualitative_label>
label 0

$$$$

----------
experiment: qHTS Assay for Lipid Storage Modulators (AID 1519); settings: Drosophila S3 cells, BODIPY lipid droplet/cell ratio, laser cytometry; measured here: cell count channel max response; cells loaded with oleic acid
Records with an inconclusive call do not appear.

>  <compound>
O=C(Nc1cccc(F)c1)N1CCC2(CC1)CCN(C(=O)Oc1ccccc1)CC2

>  <unit_tag>
%

>  <max response>
-23.3

$$$$
>  <compound>
CC(C)c1ccc2c(c1O)CCC1C3=C(CC[C@]21C)C(=O)OC3 (stereo not given in full)

>  <unit_tag>
%

>  <max response>
-9.02

$$$$
>  <compound>
CCNc1nc(Cl)nc(NC(C)C)n1

>  <unit_tag>
%

>  <max response>
2.72

$$$$
>  <compound>
NCC(=O)c1ccccc1

>  <unit_tag>
%

>  <max response>
23.8

$$$$
>  <compound>
CC(C)[C@@]1(NC(=O)[C@@H]2C[C@H]3c4cccc5[nH]cc(c45)C[C@@H]3N(C)C2)O[C@]2(O)[C@H]3CCCN3C(=O)[C@H](Cc3ccccc3)N2C1=O

>  <unit_tag>
%

>  <max response>
6.35

$$$$

----------
Assay: Stat Signaling Pathway (AID 446);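 note: ME-180 cervical cancer cells given 40 pM IL-6 alongside compound; SIE-controlled beta-lactamase reporter measured as 460/530 nm FRET emission ratio; % is set by controls: 0 for no effect and ±100 for the full control effect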
Conditions: ME-180 (cervical carcinoma) SIE beta-lactamase reporter, IL-6 stimulated, 5 h; series mostly up to 17.2 µM
Method: NCGC Assay Overview: The IL-6/STAT signaling pathway was assayed in ME-180 cervical carcinoma cells by a beta-lactamase reporter gene controlled by a STAT Inducible Element (SIE). This reporter is induced by IL-6 at 40 pM AC50 and inhibited by the pan JAK inhibitor, 2-(1,1-Dimethylethyl)-9-fluoro-3,6-dihydro-7H-benz[h]-imidaz[4,5-f]isoquinolin-7-one, at approximately 10 nM AC50. Plated cells were incubated overnight and on the following day, stimulated with 40 pM IL-6 for 5 hrs. […]
Inconclusive results are not listed. Calls of active or inactive are those of the source. Calls come from the whole dose curve; as a rule, active = well fitted curve in either direction with a large enough effect (not every such curve was filed as active); inconclusive = small, poorly fitted or top-dose-only effect, or another doubt; inactive = flat fitted curve, though single readings scatter.
endpoint_label: outcome

>  <compound>
O=C(Nc1ccccc1)N1CC2(CCN(C(=O)Oc3ccccc3)CC2)C1

>  <readout_value>
inactive

$$$$
>  <compound>
C[N+]1([O-])[C@@H]2CC(OC(=O)[C@@H](CO)c3ccccc3)C[C@@H]1[C@H]1O[C@H]12 (some centres undefined)

>  <readout_value>
inactive

$$$$
>  <compound>
CC(C)NC(=O)N1CCCC2(CCN(C(=O)Oc3ccccc3)CC2)C1

>  <readout_value>
inactive

$$$$
>  <compound>
COC(=O)N1CCC2(CCN(CC(C)C)CC2)CC1

>  <readout_value>
inactive

$$$$
>  <compound>
C[C@@]12CC[C@H](O)C[C@@H]1CC[C@H]1[C@@H]2C[C@@H](O)[C@]2(C)[C@@H](C3=CC(=O)OC3)CC[C@]12O

>  <readout_value>
inactive

$$$$
>  <compound>
COC(=O)N1CCC2(CCCN(C)C2)CC1

>  <readout_value>
inactive

$$$$
>  <compound>
CC1=C2[C@@H]3OC(=O)[C@@H](C)[C@@H]3CC[C@]2(C)C=CC1=O

>  <readout_value>
inactive

$$$$
>  <compound>
c1cnc(N2CC3(CCNCC3)C2)nc1

>  <readout_value>
inactive

$$$$
>  <compound>
CN(C)[C@@H]1C(=O)C(C(N)=O)=C(O)[C@]2(O)C(=O)C3=C(O)c4c(O)ccc(Cl)c4[C@](C)(O)[C@H]3C[C@@H]12

>  <readout_value>
inactive

$$$$
>  <compound>
COc1cc2c(c(OC)c1OC)-c1ccc(O)c(=O)cc1[C@H](N)CC2

>  <readout_value>
inactive

$$$$
>  <compound>
CC[C@H](C)C(=O)O[C@@H]1[C@H](O)[C@@H]2[C@H](CN3C[C@@H](C)CC[C@@H]3[C@@]2(C)O)[C@@H]2C[C@@]34O[C@@]5(O)[C@@H](OC(=O)[C@](C)(O)CC)CC[C@@]3(C)[C@H]5[C@H](OC(C)=O)[C@@H](OC(C)=O)[C@H]4[C@]12O

>  <readout_value>
inactive

$$$$
>  <compound>
N#Cc1ccc(CN2CCCC3(CCN(C(=O)Oc4ccccc4)CC3)C2)cc1

>  <readout_value>
inactive

$$$$
>  <compound>
COc1ccc(NC(=O)N2CC3(CCN(C(=O)Oc4ccccc4)CC3)C2)cc1

>  <readout_value>
inactive

$$$$
>  <compound>
O=C(c1csnn1)N1CCC2(CC1)CN(Cc1ccncc1)C2

>  <readout_value>
inactive

$$$$
>  <compound>
CC(C)CN1CCCC2(CCN(C(=O)Oc3ccccc3)CC2)C1

>  <readout_value>
inactive

$$$$
>  <compound>
c1ccc(N2CC3(CCNCC3)C2)cc1

>  <readout_value>
inactive

$$$$
>  <compound>
COc1ccc2c(c1OC)C(=O)O[C@H]2[C@H]1c2cc3c(cc2CCN1C)OCO3

>  <readout_value>
inactive

$$$$
>  <compound>
O=C(c1ccncc1)N1CCC[C@@]2(CCN(Cc3nccs3)C2)C1

>  <readout_value>
inactive

$$$$
>  <compound>
CCN(CC)C(=O)N[C@H]1C=C2c3cccc4[nH]cc(c34)C[C@@H]2N(C)C1

>  <readout_value>
inactive

$$$$
>  <compound>
CC(=O)OCC(=O)[C@@H]1CC[C@H]2[C@H]3CC[C@H]4C[C@@H](O)CC[C@]4(C)[C@@H]3C(=O)C[C@@]12C

>  <readout_value>
inactive

$$$$
>  <compound>
C[N+]1(C)[C@@H]2CC[C@H]1CC(OC(=O)[C@@H](CO)c1ccccc1)C2 (some centres undefined)

>  <readout_value>
inactive

$$$$
>  <compound>
c1csc(CN2CCC3(CCNCC3)CC2)n1

>  <readout_value>
inactive

$$$$
>  <compound>
c1ccc(N2CC3(CCNCC3)C2)nc1

>  <readout_value>
inactive

$$$$
>  <compound>
c1cnc(N2CCC3(CCNCC3)CC2)nc1

>  <readout_value>
inactive

$$$$
>  <compound>
CC(C)CN1CCC2(CC1)CCN(C(=O)Oc1ccccc1)CC2

>  <readout_value>
inactive

$$$$
>  <compound>
CC(C)NC(=O)N1CCC2(CC1)CCN(C(=O)Oc1ccccc1)CC2

>  <readout_value>
inactive

$$$$
>  <compound>
O=C(c1ccco1)N1CCC2(CC1)CN(Cc1ccncc1)C2

>  <readout_value>
inactive

$$$$
>  <compound>
C[N+]1([O-])[C@@H]2CC[C@H]1CC(OC(=O)[C@@H](CO)c1ccccc1)C2 (some centres undefined)

>  <readout_value>
inactive

$$$$
>  <compound>
O=C(Nc1ccccc1)N1CCCC2(CCN(C(=O)Oc3ccccc3)CC2)C1

>  <readout_value>
inactive

$$$$
>  <compound>
C[C@@]12CCC(=O)C=C1C=C[C@H]1[C@H]3CC[C@](O)(CCC(=O)O)[C@]3(C)CC[C@@H]12

>  <readout_value>
inactive

$$$$
>  <compound>
CN1Cc2c(ccc3c2OCO3)[C@@H]2[C@@H](O)Cc3cc4c(cc3[C@@H]21)OCO4

>  <readout_value>
inactive

$$$$
>  <compound>
C=C(C)[C@H]1[C@H]2OC(=O)[C@@H]1[C@]1(O)C[C@H]3O[C@]34C(=O)O[C@H]2[C@@]14C

>  <readout_value>
inactive

$$$$
>  <compound>
O=C(NCNC(=O)N[C@H]1C(=O)NC(=O)N1CO)N[C@H]1C(=O)NC(=O)N1CO

>  <readout_value>
inactive

$$$$
>  <compound>
CN1[C@@H](C[C@@H](O)c2ccccc2)CCC[C@@H]1C[C@H](O)c1ccccc1

>  <readout_value>
inactive

$$$$
>  <compound>
N#Cc1ccc(CN2CCC3(CC2)CCN(C(=O)Oc2ccccc2)CC3)cc1

>  <readout_value>
inactive

$$$$
>  <compound>
O=C(Oc1ccccc1)N1CCC[C@@]2(CCN(C(c3ccccc3)c3ccccc3)C2)C1

>  <readout_value>
inactive

$$$$
>  <compound>
O=C1C=C2C=C[C@H]3C[C@@]2(O1)[C@H]1CCCCN31

>  <readout_value>
inactive

$$$$
>  <compound>
CCCCn1c(O)c(C=NCCN2CCCCC2)c(=O)[nH]c1=O

>  <readout_value>
inactive

$$$$
>  <compound>
COc1ccc(NC(=O)N2CCCC3(CCN(C(=O)Oc4ccccc4)CC3)C2)cc1

>  <readout_value>
inactive

$$$$
